Biological target: synthetic amyloid fibrils composed of recombinant Vλ6 protein Wil
Experiment: SPR
Square brackets hold non-standard residues; d marks the D form. Ends that are not written are not given here.
Task for the reader: assign each of the following binders its reported pKd.
Give bare numbers, as −log10 of the molar value.

Examples with their reported pKd follow.
>  <binder>
GGG[dY][dS][dK][dA][dQ][dK][dA][dQ][dA][dK][dQ][dA][dK][dQ][dA][dQ][dK][dA][dQ][dK][dA][dQ][dA][dK][dQ][dA][dK][dQ] [peptide p5(D)]

>  <pKd>
8.27

$$$$
>  <binder>
VYKVKTKVKTKVKTKVKT [peptide p5(sheet)]

>  <pKd>
8.00

$$$$
>  <binder>
GGGYSKAQKAQAKQAKQAQKAQKAQAKQAKQ [peptide p5]

>  <pKd>
8.43

$$$$
>  <binder>
GGGYSKGGKGGGKGGKGGGKGGKGGGKGGKG [peptide p5(coil)]

>  <pKd>
7.74

$$$$

Then this binder:
pKd recorded for this binder, GGGYSKAQKAPAKQAKQPQKAQKAPAKQAKQ [peptide p5(Pro3)] , is 7.60
